Target: human ether-à-go-go-related gene (hERG) potassium channel (human, UniProt Q12809)
Sequence (Q12809 whole entry, looked up): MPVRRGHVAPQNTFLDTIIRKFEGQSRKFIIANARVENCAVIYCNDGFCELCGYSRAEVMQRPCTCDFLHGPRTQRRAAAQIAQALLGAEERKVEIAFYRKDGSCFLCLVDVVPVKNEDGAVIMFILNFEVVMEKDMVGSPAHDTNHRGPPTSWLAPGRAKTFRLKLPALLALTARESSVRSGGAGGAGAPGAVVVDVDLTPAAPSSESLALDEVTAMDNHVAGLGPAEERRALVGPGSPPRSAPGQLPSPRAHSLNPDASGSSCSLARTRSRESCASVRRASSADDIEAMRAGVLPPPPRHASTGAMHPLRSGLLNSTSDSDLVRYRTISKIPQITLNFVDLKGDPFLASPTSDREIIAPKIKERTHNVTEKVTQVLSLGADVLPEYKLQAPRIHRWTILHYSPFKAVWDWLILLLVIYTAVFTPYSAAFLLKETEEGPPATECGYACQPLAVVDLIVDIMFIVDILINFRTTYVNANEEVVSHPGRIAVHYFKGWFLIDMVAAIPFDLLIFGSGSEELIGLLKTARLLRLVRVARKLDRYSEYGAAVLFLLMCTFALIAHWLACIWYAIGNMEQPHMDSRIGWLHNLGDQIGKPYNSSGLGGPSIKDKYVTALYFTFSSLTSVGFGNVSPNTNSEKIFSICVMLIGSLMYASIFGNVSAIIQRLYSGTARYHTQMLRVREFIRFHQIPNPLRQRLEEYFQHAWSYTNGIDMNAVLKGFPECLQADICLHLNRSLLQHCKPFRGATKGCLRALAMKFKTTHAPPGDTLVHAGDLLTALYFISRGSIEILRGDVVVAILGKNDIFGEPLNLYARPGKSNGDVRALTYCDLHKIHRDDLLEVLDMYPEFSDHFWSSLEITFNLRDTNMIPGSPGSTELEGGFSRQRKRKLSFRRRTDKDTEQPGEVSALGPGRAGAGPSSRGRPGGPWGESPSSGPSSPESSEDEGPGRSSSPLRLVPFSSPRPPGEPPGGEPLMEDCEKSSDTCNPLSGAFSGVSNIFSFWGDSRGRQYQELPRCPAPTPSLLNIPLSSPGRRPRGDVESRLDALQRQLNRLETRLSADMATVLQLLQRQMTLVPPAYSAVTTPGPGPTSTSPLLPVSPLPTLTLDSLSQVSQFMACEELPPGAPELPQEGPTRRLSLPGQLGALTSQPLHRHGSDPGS
Experiment: primary screen, population patch clamp on CHO cells stably expressing hERG; higher = less effect of the substance
The campaign covered roughly 310,000 compounds. About 14,000 (4.5%) showed an effect of 50% or more. Effects have a minus sign here. The sample as a whole holds a higher share of strong results than the screen did.
Test Readout: hERG current change (%, negative = inhibition) at 10uM (%)
Value expressed in %; do not type the unit.

Give hERG current change (%, negative = inhibition) at 10uM for `COc1c([N+](=O)[O-])c(=O)oc2ccccc12` tested on human ether-à-go-go-related gene (hERG) potassium channel (human, UniProt Q12809).
15.4

Give hERG current change (%, negative = inhibition) at 10uM for `N#CCc1cc2ccc3cccc4ccc(c1)c2c34` tested on human ether-à-go-go-related gene (hERG) potassium channel (human, UniProt Q12809).
16.2

Give hERG current change (%, negative = inhibition) at 10uM for `Cn1c(CSCc2ccc(Cl)cc2)nnc1SCC(=O)Nc1nc2ccccc2s1` tested on human ether-à-go-go-related gene (hERG) potassium channel (human, UniProt Q12809).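 Note: peak tail current of the secondary pulse compared with the same well before compound.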
9.45

Give hERG current change (%, negative = inhibition) at 10uM for `O=C(Cn1cc2c(n1)CCCC2)Nc1ccccc1Br` tested on human ether-à-go-go-related gene (hERG) potassium channel (human, UniProt Q12809).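 Note: peak tail current of the secondary pulse compared with the same well before compound.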
1.06

Give hERG current change (%, negative = inhibition) at 10uM for C=CCOC(=O)C1=C(C)NC(SCC(=O)Nc2ccccc2)=C(C#N)C1c1ccco1 (stereo not shown) tested on human ether-à-go-go-related gene (hERG) potassium channel (human, UniProt Q12809).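 Note: peak tail current of the secondary pulse compared with the same well before compound.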
-15.1

Give hERG current change (%, negative = inhibition) at 10uM for CCC(C)NCCC(=O)Nc1ccc(Cl)c(S(=O)(=O)Nc2ccc(Cl)cc2)c1 (stereo not shown) tested on human ether-à-go-go-related gene (hERG) potassium channel (human, UniProt Q12809).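 Note: peak tail current of the secondary pulse compared with the same well before compound.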
-53.6
